measured-target: Sodium-dependent serotonin transporter (Homo sapiens)
Sequence (P31645 whole entry): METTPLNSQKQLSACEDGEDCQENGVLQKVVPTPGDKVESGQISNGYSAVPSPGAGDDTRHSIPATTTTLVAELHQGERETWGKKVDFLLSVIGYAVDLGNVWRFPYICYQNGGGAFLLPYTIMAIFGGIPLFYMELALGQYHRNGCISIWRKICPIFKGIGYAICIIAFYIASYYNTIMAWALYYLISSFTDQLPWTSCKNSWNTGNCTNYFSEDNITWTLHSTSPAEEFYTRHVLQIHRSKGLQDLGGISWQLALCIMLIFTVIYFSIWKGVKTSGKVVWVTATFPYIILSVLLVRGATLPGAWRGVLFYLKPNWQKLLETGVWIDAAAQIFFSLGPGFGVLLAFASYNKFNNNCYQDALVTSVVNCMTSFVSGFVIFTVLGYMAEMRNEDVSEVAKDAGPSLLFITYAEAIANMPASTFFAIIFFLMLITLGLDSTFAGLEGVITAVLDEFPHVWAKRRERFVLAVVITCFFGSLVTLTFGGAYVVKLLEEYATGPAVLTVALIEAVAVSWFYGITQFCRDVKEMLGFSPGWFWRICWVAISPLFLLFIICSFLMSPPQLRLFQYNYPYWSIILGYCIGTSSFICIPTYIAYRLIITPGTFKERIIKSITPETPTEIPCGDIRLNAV
pKi: −log10 of the molar value.
The label depends only on pKi: true if it is at least 6, false if it is smaller.

Prompt line: Form field: pKi at least 6? Entry: C=C(CCN1CCN(CCOC(c2ccccc2)c2ccccc2)CC1)c1ccccc1
Response line: false

Prompt line: Form field: pKi at least 6? Entry: CO[C@H](Cc1ccccc1)CN1CCN(CCOC(c2ccc(F)cc2)c2ccc(F)cc2)CC1
Response line: true

Prompt line: Form field: pKi at least 6? Entry: O=C(CN1CCN(CCOC(c2ccc(F)cc2)c2ccc(F)cc2)CC1)c1ccccc1
Response line: true

Prompt line: Form field: pKi at least 6? Entry: CO[C@@H](Cc1ccccc1)CN1CCN(CCOC(c2ccc(F)cc2)c2ccc(F)cc2)CC1
Response line: true

Prompt line: Form field: pKi at least 6? Entry: O[C@H](Cc1ccccc1)CN1CCN(CCOC(c2ccccc2)c2ccccc2)CC1
Response line: false

Prompt line: Form field: pKi at least 6? Entry: CC(Cc1ccccc1)CN1CCN(CCOC(c2ccc(F)cc2)c2ccc(F)cc2)CC1 (single isomer, unassigned; (-))
Response line: true

Prompt line: Form field: pKi at least 6? Entry: CC(O)(Cc1ccccc1)CN1CCN(CCOC(c2ccccc2)c2ccccc2)CC1 (stereo not drawn)
Response line: false

Prompt line: Form field: pKi at least 6? Entry: C=C(Cc1ccccc1)CN1CCN(CCOC(c2ccc(F)cc2)c2ccc(F)cc2)CC1
Response line: true

###

assay-comment: Ratio of Ki for SERT to Ki for DAT
Grouping key: Ratio Ki. Bins: one = under 8, two = from 8 up to 20, three = 20 and over

Prompt line: Assign a bin to CO[C@H](Cc1ccccc1)CN1CCN(CCOC(c2ccc(F)cc2)c2ccc(F)cc2)CC1
Response line: two

Prompt line: Assign a bin to C=C(CCN1CCN(CCOC(c2ccc(F)cc2)c2ccc(F)cc2)CC1)c1ccccc1
Response line: two

Prompt line: Assign a bin to C=C(Cc1ccccc1)CN1CCN(CCOC(c2ccc(F)cc2)c2ccc(F)cc2)CC1
Response line: one

Prompt line: Assign a bin to O[C@H](Cc1ccccc1)CN1CCN(CCOC(c2ccccc2)c2ccccc2)CC1
Response line: three

Prompt line: Assign a bin to CC(Cc1ccccc1)CN1CCN(CCOC(c2ccc(F)cc2)c2ccc(F)cc2)CC1 (stereo in doubt; (+)-7)
Response line: one

Prompt line: Assign a bin to O=C(Cc1ccccc1)CN1CCN(CCOC(c2ccccc2)c2ccccc2)CC1
Response line: three

Prompt line: Assign a bin to FC[C@H](Cc1ccccc1)N1CCN(CCOC(c2ccc(F)cc2)c2ccc(F)cc2)CC1
Response line: one

Prompt line: Assign a bin to CC(O)(Cc1ccccc1)CN1CCN(CCOC(c2ccc(F)cc2)c2ccc(F)cc2)CC1 (configuration not stated)
Response line: one

Prompt line: Assign a bin to CC(Cc1ccccc1)CN1CCN(CCOC(c2ccc(F)cc2)c2ccc(F)cc2)CC1 (single isomer, unassigned; (-))
Response line: two

Prompt line: Assign a bin to Fc1ccc(C(OCCN2CCN(C[C@@H](F)Cc3ccccc3)CC2)c2ccc(F)cc2)cc1
Response line: three

Prompt line: Assign a bin to Fc1ccc(C(OCCN2CCN(CCc3ccccc3)CC2)c2ccc(F)cc2)cc1
Response line: one

Prompt line: Assign a bin to CC(O)(Cc1ccccc1)CN1CCN(CCOC(c2ccccc2)c2ccccc2)CC1 (configuration not stated)
Response line: two

Prompt line: Assign a bin to O[C@H](Cc1ccccc1)CN1CCN(CCOC(c2ccc(F)cc2)c2ccc(F)cc2)CC1
Response line: two

Prompt line: Assign a bin to O[C@@H](Cc1ccccc1)CN1CCN(CCOC(c2ccc(F)cc2)c2ccc(F)cc2)CC1
Response line: three

Prompt line: Assign a bin to CC(O)(CCN1CCN(CCOC(c2ccccc2)c2ccccc2)CC1)c1ccccc1 (configuration not stated)
Response line: three

Prompt line: Assign a bin to Fc1ccc(C(OCCN2CCN(C[C@H](F)Cc3ccccc3)CC2)c2ccc(F)cc2)cc1
Response line: three
